# ASSAYED_SYSTEM: T1, human serum albumin (human, UniProt P02768 25-609)
# T1 construct: Bought protein, immobilized on a CM5 chip by amine coupling; also called Human SA
# PROTOCOL_DETAILS: SPR (Biacore 8K), albumin immobilized on CM5 chip, 25 C, 1:1 kinetic fit
ENDPOINT_NAME: Kd (nM)

INSERT INTO results (binder, units_of_measure, experimental_result) VALUES
  ('RLN Analog 8 (other, Single-chain fusion: VHH - (PGPQ)8 L1 - RLN2 B chain (desB1) - L2 - RLN2 A chain) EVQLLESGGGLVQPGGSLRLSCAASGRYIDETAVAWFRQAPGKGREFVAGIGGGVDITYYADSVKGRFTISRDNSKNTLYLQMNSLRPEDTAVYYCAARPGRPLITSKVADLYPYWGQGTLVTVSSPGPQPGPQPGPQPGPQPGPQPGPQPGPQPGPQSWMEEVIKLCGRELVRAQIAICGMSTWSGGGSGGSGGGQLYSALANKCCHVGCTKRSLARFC', 'nM', 0.078),
  ('RLN Analog 5 (other, Single-chain fusion: RLN2 B chain (desB1) - L2 - RLN2 A chain - (G4Q)5 L1 - VHH (C-terminal)) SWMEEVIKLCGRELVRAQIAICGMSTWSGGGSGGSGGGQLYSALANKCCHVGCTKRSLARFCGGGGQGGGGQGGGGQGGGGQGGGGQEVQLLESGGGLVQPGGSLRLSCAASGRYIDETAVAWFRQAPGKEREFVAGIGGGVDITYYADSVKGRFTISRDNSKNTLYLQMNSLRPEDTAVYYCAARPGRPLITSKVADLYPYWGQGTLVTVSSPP', 'nM', 0.45);
